Recorded residual activity for the following compounds
biological target: PAK2 (human); assay: radiometric filter-binding kinase assay, Kinase HotSpot; settings: compound 0.5 µM; ATP 10 µM
Just the number please, in %, no unit attached.

{"smilesCode": "COc1cc(Nc2c(C#N)cnc3cc(OCCCN4CCN(C)CC4)c(OC)cc23)c(Cl)cc1Cl", "residual activity [%]": 69.4}

Form field: reported residual activity of `COc1ccc2c(c1)/C(=C/c1cnc[nH]1)C(O)=N2`
97.7

Form field: reported residual activity of `CN(C)CCCn1cc(C2=C(c3c[nH]c4ccccc34)C(=O)NC2=O)c2ccccc21`
96.2

Form field: reported residual activity of `COc1cc2ncnc(Nc3ccc(Oc4ccccc4)cc3)c2cc1OC`
78.7

Form field: reported residual activity of `O=C1c2ccccc2-c2nc3nnnn3nc21`
96.2

Form field: reported residual activity of `Cc1cccc(-c2nc(C(C)(C)C)[nH]c2-c2ccc3c(c2)OCO3)n1`
72.4

Form field: reported residual activity of `O=C1C(Cl)=C(N2C(=O)CCC2=O)C(=O)c2ccccc21`
104

Form field: reported residual activity of `COc1ccc2c(c1)c(C1=C(c3c[nH]c4ccccc34)C(=O)NC1=O)cn2CCCN(C)C`
108

Form field: reported residual activity of `C[C@@H]1CCN(C(=O)CC#N)C[C@@H]1N(C)c1ncnc2[nH]ccc12`
111

Form field: reported residual activity of `Ic1cccc(CSc2nnc(-c3ccncc3)o2)c1`
97.6

Form field: reported residual activity of `COc1ccc(S(=O)(=O)N(CCO)c2ccccc2CN(C)C/C=C/c2ccc(Cl)cc2)cc1`
101

Form field: reported residual activity of `O=C1Nc2ccc(Br)cc2/C1=C\c1cc2c([nH]1)CCCC2`
90

Form field: reported residual activity of `Cc1nc(-c2ccccc2)c(-c2ccncc2)o1`
82.3

Form field: reported residual activity of `CCCCc1c(-c2ccc(OC)cc2)[nH]c2nccnc12`
97.5

Form field: reported residual activity of `CS(=O)(=O)CCNCc1ccc(-c2ccc3ncnc(Nc4ccc(OCc5cccc(F)c5)c(Cl)c4)c3c2)o1`
102

---

biological target: ZAP70 (human) (UniProt P43403); test: radiometric filter-binding kinase assay, Kinase HotSpot; details: compound 0.5 µM; ATP 10 µM
Sequence (P43403 whole entry, looked up): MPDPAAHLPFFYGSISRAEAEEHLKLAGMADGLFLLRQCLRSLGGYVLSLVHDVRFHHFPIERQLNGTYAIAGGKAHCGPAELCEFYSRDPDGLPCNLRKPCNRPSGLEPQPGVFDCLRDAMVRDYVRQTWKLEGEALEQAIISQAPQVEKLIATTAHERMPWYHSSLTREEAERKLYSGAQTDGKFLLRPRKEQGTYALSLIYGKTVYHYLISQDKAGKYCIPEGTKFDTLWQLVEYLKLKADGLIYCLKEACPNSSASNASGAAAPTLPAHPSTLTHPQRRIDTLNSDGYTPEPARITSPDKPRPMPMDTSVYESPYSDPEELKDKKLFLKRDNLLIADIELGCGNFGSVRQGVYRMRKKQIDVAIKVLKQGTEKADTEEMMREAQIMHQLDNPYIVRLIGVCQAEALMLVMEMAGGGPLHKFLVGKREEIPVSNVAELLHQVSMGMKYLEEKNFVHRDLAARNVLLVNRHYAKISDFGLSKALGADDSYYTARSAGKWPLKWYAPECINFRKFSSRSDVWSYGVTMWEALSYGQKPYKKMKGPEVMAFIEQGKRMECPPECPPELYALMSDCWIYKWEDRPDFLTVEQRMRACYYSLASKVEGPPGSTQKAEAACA
resultType: residual activity (%)
Just the number please, in %, no unit attached.

Worked set:
{"smilesCode": "COc1ccc(C(=O)Nc2sc3c(c2C(N)=O)CCCC3)cc1OC", "residual activity [%]": 95.6}
{"smilesCode": "CS(=O)(=O)CCNCc1ccc(-c2ccc3ncnc(Nc4ccc(OCc5cccc(F)c5)c(Cl)c4)c3c2)o1", "residual activity [%]": 92.5}
{"smilesCode": "c1ccc2c(-c3ccncc3)c[nH]c2c1", "residual activity [%]": 105}
{"smilesCode": "Cc1cncc2cccc(S(=O)(=O)N3CCCN(C(=O)CN)C[C@H]3C)c12", "residual activity [%]": 102}
{"smilesCode": "CN(C)c1ccc(/C=C2\\C(=O)Nc3ccccc32)cc1", "residual activity [%]": 89.9}

Form field: reported residual activity of `O=C1Nc2ccc(Br)cc2/C1=C\c1cc2c([nH]1)CCCC2`
93.9

Form field: reported residual activity of `O=C1NC(=O)c2c1c1c3ccccc3[nH]c1n1cncc21`
87.8

Form field: reported residual activity of `N#Cc1c[nH]c2c[nH]/c(=N\Cc3cccnc3)cc2/c1=N\c1ccc(F)c(Cl)c1`
103

Form field: reported residual activity of `C[C@@H]1CCN(C(=O)CC#N)C[C@@H]1N(C)c1ncnc2[nH]ccc12`
105

Form field: reported residual activity of `CN(C)S(=O)(=O)c1ccc2c(c1)/C(=C/c1cc3c([nH]1)CCCC3)C(=O)N2`
90

---

target: CLK2 (human) (UniProt P49760); assay: radiometric filter-binding kinase assay, Kinase HotSpot; details: compound 0.5 µM; ATP 10 µM
Sequence (P49760 whole entry, looked up): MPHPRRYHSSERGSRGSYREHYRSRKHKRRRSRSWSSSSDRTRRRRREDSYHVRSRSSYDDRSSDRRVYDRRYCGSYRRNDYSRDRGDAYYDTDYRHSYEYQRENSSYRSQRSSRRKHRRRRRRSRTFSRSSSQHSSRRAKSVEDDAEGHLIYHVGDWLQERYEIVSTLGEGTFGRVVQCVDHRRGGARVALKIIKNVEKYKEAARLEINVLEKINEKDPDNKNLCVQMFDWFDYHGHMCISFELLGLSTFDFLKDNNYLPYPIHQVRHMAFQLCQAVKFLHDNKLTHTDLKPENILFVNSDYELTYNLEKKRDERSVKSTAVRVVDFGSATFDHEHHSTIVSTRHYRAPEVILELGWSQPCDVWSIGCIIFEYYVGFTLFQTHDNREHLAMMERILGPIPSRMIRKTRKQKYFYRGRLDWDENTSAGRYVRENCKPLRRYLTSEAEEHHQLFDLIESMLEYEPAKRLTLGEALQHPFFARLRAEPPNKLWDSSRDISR
Mark Met for residual activity under 90%, Not met if at or over.

Solved entries (count: 3):
{"smilesCode": "COc1ccc(Cl)cc1NC(=O)Nc1cc(C)nc2ccccc12", "label": "Not met"}
{"smilesCode": "N#Cc1c[nH]c2c[nH]/c(=N\\Cc3cccnc3)cc2/c1=N\\c1ccc(F)c(Cl)c1", "label": "Met"}
{"smilesCode": "C[C@@H]1CCN(C(=O)CC#N)C[C@@H]1N(C)c1ncnc2[nH]ccc12", "label": "Met"}

Please examine the following record next.
Please let me know if `COc1cc2ncnc(Nc3ccc(OCc4ccccc4)cc3)c2cc1OC` shows residual activity below 90%.
Not met

---

Recorded residual activity for the following compounds
biological target: MAPKAPK5 (human) (UniProt Q8IW41); assay: radiometric filter-binding kinase assay, Kinase HotSpot; conditions: compound 0.5 µM; ATP 10 µM
Sequence (Q8IW41 whole entry, looked up): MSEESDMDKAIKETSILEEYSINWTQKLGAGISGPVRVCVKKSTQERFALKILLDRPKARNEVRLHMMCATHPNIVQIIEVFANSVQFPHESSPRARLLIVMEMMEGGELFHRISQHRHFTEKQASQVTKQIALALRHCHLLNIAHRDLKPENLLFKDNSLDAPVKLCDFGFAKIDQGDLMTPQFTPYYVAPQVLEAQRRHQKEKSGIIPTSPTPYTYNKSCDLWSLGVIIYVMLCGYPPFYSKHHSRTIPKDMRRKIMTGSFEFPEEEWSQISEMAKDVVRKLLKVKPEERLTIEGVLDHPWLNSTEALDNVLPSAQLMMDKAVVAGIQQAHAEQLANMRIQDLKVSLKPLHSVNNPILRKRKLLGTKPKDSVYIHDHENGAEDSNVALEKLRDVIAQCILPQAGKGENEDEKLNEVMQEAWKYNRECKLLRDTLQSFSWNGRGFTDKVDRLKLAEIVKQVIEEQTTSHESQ
Just the number please, in %, no unit attached.

Worked set:
{"smilesCode": "COc1ccc(Cl)cc1NC(=O)Nc1cc(C)nc2ccccc12", "resultType": "residual activity", "measuredResult": 89.1}
{"smilesCode": "N#Cc1c[nH]c2c[nH]/c(=N\\Cc3cccnc3)cc2/c1=N\\c1ccc(F)c(Cl)c1", "resultType": "residual activity", "measuredResult": 99.6}
{"smilesCode": "Ic1cccc(CSc2nnc(-c3ccncc3)o2)c1", "resultType": "residual activity", "measuredResult": 83.6}
{"smilesCode": "CN(C)S(=O)(=O)c1ccc2c(c1)/C(=C/c1cc3c([nH]1)CCCC3)C(=O)N2", "resultType": "residual activity", "measuredResult": 99.8}

As a next step, examine the compound that follows.
Form field: reported residual activity of `C[C@@H]1CCN(C(=O)CC#N)C[C@@H]1N(C)c1ncnc2[nH]ccc12`
97.3

---

Recorded residual activity for the following compounds
biological target: MAPK12 (human); test: radiometric filter-binding kinase assay, Kinase HotSpot; settings: compound 0.5 µM; ATP 10 µM
Just the number please, in %, no unit attached.

Form field: reported residual activity of `COc1cc(Nc2c(C#N)cnc3cc(OCCCN4CCN(C)CC4)c(OC)cc23)c(Cl)cc1Cl`
99.9

Form field: reported residual activity of `CN(C)S(=O)(=O)c1ccc2c(c1)/C(=C/c1cc3c([nH]1)CCCC3)C(=O)N2`
103

Form field: reported residual activity of `O=C1Nc2ccc(Br)cc2/C1=C\c1cc2c([nH]1)CCCC2`
93

Form field: reported residual activity of `Fc1ccc(-c2nc3n(c2-c2ccncc2)CCS3)cc1`
104

Form field: reported residual activity of `Cc1cccc(-c2nc(C(C)(C)C)[nH]c2-c2ccc3c(c2)OCO3)n1`
95.7

Form field: reported residual activity of `O=C(c1cc2cc(O)ccc2[nH]1)c1cc2cc(O)ccc2[nH]1`
97.9

Form field: reported residual activity of `CC(C)(C)c1cc(C=C(C#N)C#N)cc(Br)c1O`
102

Form field: reported residual activity of `CO[C@@H]1[C@H](N(C)C(=O)c2ccccc2)C[C@H]2O[C@]1(C)n1c3ccccc3c3c4c(c5c6ccccc6n2c5c31)C(=O)NC4`
95.8

Form field: reported residual activity of `CS(=O)(=O)CCNCc1ccc(-c2ccc3ncnc(Nc4ccc(OCc5cccc(F)c5)c(Cl)c4)c3c2)o1`
95

---

biological target: UniProtKB Q96KB5; experiment: radiometric filter-binding kinase assay, Kinase HotSpot; conditions: compound 0.5 µM; ATP 10 µM
Sequence (Q96KB5 whole entry, looked up): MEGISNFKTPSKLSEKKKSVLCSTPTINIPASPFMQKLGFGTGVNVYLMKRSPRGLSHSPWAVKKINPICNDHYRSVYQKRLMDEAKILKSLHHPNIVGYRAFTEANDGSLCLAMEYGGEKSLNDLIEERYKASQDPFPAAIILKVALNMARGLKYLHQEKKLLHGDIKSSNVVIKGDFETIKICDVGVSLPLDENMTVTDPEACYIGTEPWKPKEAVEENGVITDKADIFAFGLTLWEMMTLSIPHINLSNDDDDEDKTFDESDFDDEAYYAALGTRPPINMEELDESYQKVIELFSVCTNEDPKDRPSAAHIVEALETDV
Recorded residual activity for the following compounds
Just the number please, in %, no unit attached.

{"smilesCode": "CS(=O)(=O)CCNCc1ccc(-c2ccc3ncnc(Nc4ccc(OCc5cccc(F)c5)c(Cl)c4)c3c2)o1", "resultType": "residual activity", "uom": "%", "measuredResult": 105}
{"smilesCode": "Fc1ccc(-c2nc3n(c2-c2ccncc2)CCS3)cc1", "resultType": "residual activity", "uom": "%", "measuredResult": 100}
{"smilesCode": "COc1ccc(S(=O)(=O)N(CCO)c2ccccc2CN(C)C/C=C/c2ccc(Cl)cc2)cc1", "resultType": "residual activity", "uom": "%", "measuredResult": 95.3}
{"smilesCode": "CN(C)CCCn1cc(C2=C(c3c[nH]c4ccccc34)C(=O)NC2=O)c2ccccc21", "resultType": "residual activity", "uom": "%", "measuredResult": 81.3}

Form field: reported residual activity of `Cn1c2ccccc2c2c3c(c4c5ccccc5n(CCC#N)c4c21)CNC3=O`
84.2

Form field: reported residual activity of `O=C1Nc2ccc(Br)cc2/C1=C\c1cc2c([nH]1)CCCC2`
87.8

Form field: reported residual activity of `CCCCc1c(-c2ccc(OC)cc2)[nH]c2nccnc12`
80.6

---

Recorded residual activity for the following compounds
molecular target: PTK6 (human) (UniProt Q13882); assay: radiometric filter-binding kinase assay, Kinase HotSpot; conditions: compound 0.5 µM; ATP 10 µM
Sequence (Q13882 whole entry, looked up): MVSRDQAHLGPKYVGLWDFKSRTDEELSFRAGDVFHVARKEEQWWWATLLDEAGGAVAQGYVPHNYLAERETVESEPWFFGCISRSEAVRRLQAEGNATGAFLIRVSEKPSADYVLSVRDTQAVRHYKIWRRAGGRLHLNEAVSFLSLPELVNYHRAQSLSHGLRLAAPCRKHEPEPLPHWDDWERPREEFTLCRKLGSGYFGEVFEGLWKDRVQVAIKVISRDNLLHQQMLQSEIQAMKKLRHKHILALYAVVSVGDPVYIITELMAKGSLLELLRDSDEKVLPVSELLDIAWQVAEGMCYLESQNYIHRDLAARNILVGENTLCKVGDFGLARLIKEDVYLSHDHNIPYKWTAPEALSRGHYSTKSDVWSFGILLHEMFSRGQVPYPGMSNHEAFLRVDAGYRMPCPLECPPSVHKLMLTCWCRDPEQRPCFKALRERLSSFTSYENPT
Number plus unit, in that order.

Worked set:
{"smilesCode": "CC(C)(C)c1cc(C=C(C#N)C#N)cc(Br)c1O", "residual activity": "91.4%"}
{"smilesCode": "O=C1C(Cl)=C(N2C(=O)CCC2=O)C(=O)c2ccccc21", "residual activity": "94.8%"}
{"smilesCode": "NC(=O)c1cccc(-c2cc(Nc3ccc(OC(F)(F)F)cc3)ncn2)c1", "residual activity": "94.5%"}
{"smilesCode": "COc1ccc(C(=O)Nc2sc3c(c2C(N)=O)CCCC3)cc1OC", "residual activity": "97.8%"}
{"smilesCode": "O=C1Nc2ccc(Br)cc2/C1=C\\c1cc2c([nH]1)CCCC2", "residual activity": "82.3%"}

Form field: reported residual activity of `CCCCc1c(-c2ccc(OC)cc2)[nH]c2nccnc12`
30.4%

Form field: reported residual activity of `Fc1ccc(-c2nc3n(c2-c2ccncc2)CCS3)cc1`
84.8%

Form field: reported residual activity of `N#Cc1c[nH]c2c[nH]/c(=N\Cc3cccnc3)cc2/c1=N\c1ccc(F)c(Cl)c1`
84.1%

Form field: reported residual activity of `COc1ccc(Cl)cc1NC(=O)Nc1cc(C)nc2ccccc12`
101%

Form field: reported residual activity of `Cc1cncc2cccc(S(=O)(=O)N3CCCN(C(=O)CN)C[C@H]3C)c12`
87.8%
